// values below are reported GI50
- Test system: BT-549
- test-method-notes: Growth inhibition of human BT549 cells after 48 hrs by SRB protein assay
- Type: functional
- study-conditions: BT-549, 48 h
Numeric answer only, unit µM assumed.

Examples from the recorded data:
[[record]]
compound = "O=C(CC1Sc2ncnn2C1=O)Nc1ccc(Cl)cc1 (stereo unspecified)"
measurement_label = "GI50"
reported = 37.2

[[record]]
compound = "CCOC(=O)c1ccc(NC(=O)CC2Sc3ncnn3C2=O)cc1 (stereo unspecified)"
measurement_label = "GI50"
reported = 21.9

[[record]]
compound = "O=c1/c(=C/c2ccc(F)cc2)sc2ncnn12"
measurement_label = "GI50"
reported = 42.7


With those in mind, consider the next compound.
Field GI50 (entry O=C(CC1Sc2ncnn2C1=O)Nc1ccccc1 (stereo unspecified) ) reads 0.339
